# ASSAY_SYSTEM: purified recombinant WDR5 (used for FPA) (UniProt P61964 1-334)
# ASSAY_REMARKS: fluorescence polarisation
pKd: −log10 of the molar value. Where no end group is shown, it is not given here.
RESULT_TYPE: pKd

// worked examples, pKd included
1. DEEEIDGVSV [MbIIIb mutant peptide V264G] :: < 3.30
2. DEEEEDEESV [MbIIIb mutant peptide WBM (I262/V264/V265 to glutamic acid)] :: < 3.30

Here is the next item to consider.
Value of measured pKd for the entry DEEEIDVVSV (also: FITC label (position not given here)) [FITC-labeled MbIIIb peptide (residues 258–267 of human c-MYC)] : 5.03
